Property: composite z-score; scope: individual compounds
- TARGET ENTITY: Torsin-1A-interacting protein 1 (Homo sapiens) (UniProt Q5JTV8)
- Sequence (Q5JTV8 whole entry, looked up): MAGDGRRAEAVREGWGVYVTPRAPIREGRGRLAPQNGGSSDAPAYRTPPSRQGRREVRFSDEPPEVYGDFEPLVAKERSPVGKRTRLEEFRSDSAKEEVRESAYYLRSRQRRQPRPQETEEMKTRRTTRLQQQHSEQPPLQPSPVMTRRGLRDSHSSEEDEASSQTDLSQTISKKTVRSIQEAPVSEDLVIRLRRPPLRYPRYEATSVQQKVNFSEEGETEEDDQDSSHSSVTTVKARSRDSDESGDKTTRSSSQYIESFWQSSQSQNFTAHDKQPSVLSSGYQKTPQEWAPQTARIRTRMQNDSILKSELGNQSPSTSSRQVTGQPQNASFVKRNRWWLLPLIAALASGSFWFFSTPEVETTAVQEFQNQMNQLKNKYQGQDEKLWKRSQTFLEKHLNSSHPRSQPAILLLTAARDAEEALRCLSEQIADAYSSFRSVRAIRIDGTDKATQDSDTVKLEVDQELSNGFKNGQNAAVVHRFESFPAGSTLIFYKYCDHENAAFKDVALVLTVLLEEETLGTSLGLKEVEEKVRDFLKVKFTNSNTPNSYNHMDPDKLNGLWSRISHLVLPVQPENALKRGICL
- TEST DETAILS: compound microarray binding of lysate hLAP1 – cell lysate, small-molecule microarray, COS7 lysate, 635/667 nm fluorescence, primary screen (AID 1116)
- CONDITION DETAILS: 635 nm fluorescence, higher = more signal
REPORTED PROPERTY: composite z-score

| COMPOUND | REPORTED PROPERTY | REPORTED VALUE |
| --- | --- | --- |
| Cc1cc(C)c(C(O)C2C=CC3C(=O)N(c4ccccc4)C(=O)C3N2Nc2ccccc2F)c(C)c1 (centres undefined) | composite z-score | 0.563 |
| CC(C)[Si]1(C(C)C)OCc2cc(-c3ccc(-c4ccc(Cl)c(Cl)c4)o3)nc(-c3ccccc3)c21 | composite z-score | -1.16 |
| C[N+](C)(C)CCCC[C@@H]1NC(=O)[C@@H]2C[C@H](C(=O)NCCCCCCN)[C@H](c3cccc(OCCO)c3)N2C1=O | composite z-score | 2.55 |
| CCCCC(CC)C(O)C1C=CC2C(=O)N(c3ccccc3)C(=O)C2N1Nc1ccccc1F (centres undefined) | composite z-score | 0.928 |
